Give Kd for every item shown.
# system: mASH1L PHD domain (residue 2573–2624) Q2590E (mouse, UniProt Q99MY8 2573-2624, Q2590E)
# assay comment: ITC
Primed or numbered codes have the meaning given here. Where no end group is shown, it is not given here. [ ]: non-standard residue; d: D form. Me3″ = trimethylation (trimethyl-lysine); Lys(Me2) = CN(C)CCCC[C@H](N)C(=O)O
The reply should read as a number followed by its unit.

For ART[Lys(Me2)]QTARKSTGGKA (also called H3K4me2; H3K4me2 peptide (1–15); source: synthetic peptide (MIMOYOPES, Wuxi, China)) [histone H3 (1–15) peptide, dimethylated on lysine 4] the binder record lists Kd as 35 µM

Value of Kd reported for the binder ARTK(Me3″)QTARKSTGGKA (peptide, UniProt P68431 2-16, looked up, histone H3, residues 1-15; also called H3K4me3; source: synthetic peptide (MIMOYOPES, Wuxi, China)) [histone H3 (1–15) peptide, trimethylated on lysine 4] is 33 µM

response.value for ARTK(Me)QTARKSTGGKA (peptide, UniProt P68431 2-16, looked up, histone H3, residues 1-15; also called H3K4me1; H3K4me; source: synthetic peptide (MIMOYOPES, Wuxi, China)) [histone H3 (1–15) peptide, monomethylated on lysine 4] (field: Kd) = 31 µM
